target: CD137 (UniProt Q07011 24-255, limits assumed); assay: cell-based or functional assay
Sequence (Q07011 24-255 limits assumed): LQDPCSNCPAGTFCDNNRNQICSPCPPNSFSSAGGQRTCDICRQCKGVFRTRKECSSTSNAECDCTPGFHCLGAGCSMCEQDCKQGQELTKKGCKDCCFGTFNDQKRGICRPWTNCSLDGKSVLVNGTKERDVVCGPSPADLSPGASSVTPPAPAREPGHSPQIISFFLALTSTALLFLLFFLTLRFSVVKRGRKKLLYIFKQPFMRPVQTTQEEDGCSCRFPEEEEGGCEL
Measure: Fold improvement in Emax over BCY10000 on same plate (fold)

{"columns": ["Binder", "Readout Unit", "Endpoint Value"],
 "data": [
  ["BCY12661 ([Ac]C[tBuAla]EE(dK)PYCFADPY[Nle]C[Dap(PYA)]; carries the palmitic acid azide of Example 8 (palmitic acid, γGlu, Lys(N3)); Cys residues bonded to TATA scaffold; [PYA]CP[1Nal][dD]CM[HArg]DWSTP[HyP]WC; Cys residues bonded to TATA scaffold) peptide 1: XPXDCMXDWSTPXWC peptide 2: CXEEKPYCFADPYXCX", "fold", 0.5],
  ["BCY12578 (Ac-C[tBuAla]PE[D-Lys(PYA)]PYCFADPY[Nle]CA; Cys residues bonded to TATA scaffold; [3-mercaptopropionic acid]P[1Nal][dK]CM[HArg]DWSTP[HyP]W[Cysteamine]; reactive groups bonded to TATA scaffold) peptide 1: XXKCMXDWSTPXX peptide 2: CXPEXPYCFADPYXCA", "fold", 0.93],
  ["BCY12379 ([Ac]C[tBuAla]PE[dK(PYA)]PYCFADPY[Nle]C; Cys residues bonded to TATA scaffold; CP[1Nal][dD]CM[HArg]DWSTP[HyP]WC; Cys residues bonded to TATA scaffold) peptide 1: CPXDCMXDWSTPXWC peptide 2: CXPEKPYCFADPYXC", "fold", 1.29],
  ["BCY12580 (Ac-C[tBuAla]PE[D-Lys(PYA)]PYCFADPY[Nle]CA; Cys residues bonded to TATA scaffold; [Ac]CP[1Nal][dK]CM[HArg]EWSTP[HyP]WC; Cys residues bonded to TATA scaffold) peptide 1: CPXKCMXEWSTPXWC peptide 2: CXPEXPYCFADPYXCA", "fold", 0.97]
]}
